Catalogue of relative viability EC50 values
Tested on: U2OS
test details: relative viability EC50 (midpoint between 100% and the lowest measured viability); higher = less toxic
details: 72 h

Example entries begin here.
[
  {
    "compound": "Cc1cc(C)c2nc(-c3ccccn3)cc(C(=O)Nc3ccc(S(=O)(=O)Nc4onc(C)c4C)cc3)c2c1",
    "reported": "> 10 µM"
  },
  {
    "compound": "COc1ccc([C@@H]2CC(=O)c3c(O)cc(O[C@@H]4O[C@H](CO[C@@H]5O[C@@H](C)[C@H](O)[C@@H](O)[C@H]5O)[C@@H](O)[C@H](O)[C@H]4O)cc3O2)cc1O",
    "reported": "> 10 µM"
  }
]

Now turn to the next compound.
## Input Which relative viability EC50 value belongs to O=c1n(CC2CO2)c(=O)n(CC2CO2)c(=O)n1CC1CO1 (stereo not given) ?
## Output > 10 µM

###

Tested on: Caco-2
test details: cell viability relative to DMSO; higher = less toxic
details: 72 h; 100 nM
readout kind: cell viability (%)
Could you give me the number in %? Just the number is fine.

Example entries begin here.
[
  {
    "compound": "COc1ccc(S(=O)(=O)N2CCC[C@H]2C(=O)Nc2cc(C)cc(C)c2)cc1",
    "cell viability / %": 98.1
  },
  {
    "compound": "O=C(O)CCC(=O)OC[C@@H](NC(=O)C(Cl)Cl)[C@H](O)c1ccc([N+](=O)[O-])cc1 [chloramphenicol-sodium-succinate]",
    "cell viability / %": 98.2
  }
]

Now turn to the next compound.
## Input Return cell viability measured with Caco-2 given this compound: "Cn1c(=O)[nH]c2ncn(C)c2c1=O"
## Output 97.4

###

System: U2OS
test details: relative viability EC50 (midpoint between 100% and the lowest measured viability); higher = less toxic
details: 72 h
Catalogue of relative viability EC50 values

Example entries begin here.
[
  {
    "molecule": "O=C(O)[C@H]1O[C@@H](Oc2cc3oc(-c4ccccc4)cc(=O)c3c(O)c2O)[C@H](O)[C@@H](O)[C@@H]1O",
    "target entity": "U2OS",
    "relative viability EC50": "> 10 µM"
  },
  {
    "molecule": "CNC(=O)c1cc(COc2nnc(Nc3ccc(Cl)cc3)c3ccoc23)ccn1",
    "target entity": "U2OS",
    "relative viability EC50": "> 10 µM"
  },
  {
    "molecule": "O=C1NCC2(CCN(CCc3ccccc3)CC2)O1 [fenspiride]",
    "target entity": "U2OS",
    "relative viability EC50": "> 10 µM"
  },
  {
    "molecule": "C=CC(=O)Nc1cccc(Oc2nc(Nc3ccc(N4CCN(C)CC4)cc3)ncc2Cl)c1",
    "target entity": "U2OS",
    "relative viability EC50": "1.46 µM"
  },
  {
    "molecule": "CNC(=O)c1ccc2c(c1)S(=O)(=O)c1ccccc1C2=O [BW-616U]",
    "target entity": "U2OS",
    "relative viability EC50": "> 10 µM"
  },
  {
    "molecule": "O=C(O)c1cc2cccc([N+](=O)[O-])c2[nH]1",
    "target entity": "U2OS",
    "relative viability EC50": "> 10 µM"
  },
  {
    "molecule": "C=C(c1ccccc1OCc1cccc(Cl)c1)n1ccnc1",
    "target entity": "U2OS",
    "relative viability EC50": "> 10 µM"
  },
  {
    "molecule": "NC(=O)CN1CC(O)CC1=O (stereo not given)",
    "target entity": "U2OS",
    "relative viability EC50": "> 10 µM"
  },
  {
    "molecule": "C[C@H](NC(=O)[C@@H](O)c1cc(F)cc(F)c1)C(=O)N[C@@H]1C(=O)N(C)c2ccccc2-c2ccccc21",
    "target entity": "U2OS",
    "relative viability EC50": "> 10 µM"
  },
  {
    "molecule": "CC(C)c1cc(CNc2nc(Nc3cc(C4CC4)[nH]n3)cc(N3CCN(C)CC3)n2)on1",
    "target entity": "U2OS",
    "relative viability EC50": "0.47 µM"
  }
]

## Input Which relative viability EC50 value belongs to "FC(F)(F)C(F)(F)C(F)(F)N(C(F)(F)C(F)(F)C(F)(F)F)C(F)(F)C(F)(F)C(F)(F)F" ?
## Output > 10 µM

## Input Which relative viability EC50 value belongs to "O=C(NCCN1CCN(c2ncccn2)CC1)C12CC3CC(CC(C3)C1)C2" ?
## Output > 10 µM

## Input Which relative viability EC50 value belongs to "C[C@]12CC[C@H](O)C[C@H]1CC[C@@H]1[C@@H]2CC[C@]2(C)[C@@H](C3=CC(=O)OC3)CC[C@]12O" ?
## Output 0.435 µM

## Input Which relative viability EC50 value belongs to "C=C1/C(=C\C=C2/CCC[C@]3(C)[C@@H]([C@H](C)CCCC(C)C)CC[C@@H]23)C[C@@H](O)C[C@@H]1O" ?
## Output > 10 µM

## Input Which relative viability EC50 value belongs to "c1nc2c(NC3CCCCC3)nc(Nc3ccc(N4CCOCC4)cc3)nc2[nH]1" ?
## Output 1.04 µM

###

Catalogue of cell viability values
System: Caco-2
test details: cell viability relative to DMSO; higher = less toxic
details: 72 h; 10 nM
Could you give me the number in %? Just the number is fine.

[
  {
    "compound": "CC(C)NC[C@@H](O)COc1ccc(CC(N)=O)cc1 (racemic) [atenolol-(+/-)]",
    "cell viability, %": 99
  },
  {
    "compound": "O=C(O)[C@H]1CCCN(CCC=C(c2ccccc2)c2ccccc2)C1 (racemic)",
    "cell viability, %": 98.7
  },
  {
    "compound": "N[C@@H](Cc1ccc(O)cc1)C(=O)NCC(=O)NCC(=O)O",
    "cell viability, %": 91.6
  }
]

## Input Which cell viability value belongs to "C[C@H]1O[C@@H](n2cc(F)c(=O)[nH]c2=O)[C@H](O)[C@@H]1O" ?
## Output 106

## Input Which cell viability value belongs to N#Cc1cc(NC(=O)C(=O)O)c(Cl)c(NC(=O)C(=O)O)c1 [lodoxamide] ?
## Output 119

## Input Which cell viability value belongs to NC(=O)CN1CC(O)CC1=O (stereo unspecified) ?
## Output 111

## Input Which cell viability value belongs to "O=C1NC(c2ccccc2)(c2ccccc2)C(=O)N1COP(=O)(O)O" ?
## Output 102

## Input Which cell viability value belongs to "Nc1nc2ccc(Cl)cc2c2nc(-c3ccco3)nn12" ?
## Output 91.6

###

Test system: Vero E6
test details: cell viability relative to DMSO; higher = less toxic
details: 72 h; 10 nM
Catalogue of cell viability values
Quick note: unit goes after the number.

[
  {
    "smiles notation": "COC(=O)Nc1nc2cc(C(=O)c3ccc(F)cc3)ccc2[nH]1",
    "cell viability": "102%"
  }
]

## Input Which cell viability value belongs to "O=S(=O)(Cc1ccccc1)Nc1ccc(-c2ccc3c(cnn3-c3ccc(F)cc3)c2)c(C(F)(F)F)c1" ?
## Output 94.2%

## Input Which cell viability value belongs to "CC1=CC(=O)c2ccccc2C1=O" ?
## Output 104%

## Input Which cell viability value belongs to "O=C1Nc2ccccc2/C1=C1/Nc2ccccc2C1=O" ?
## Output 96.4%

###

Test system: Vero E6
test details: cell viability relative to DMSO; higher = less toxic
details: 72 h; 1000 nM
Structures can show the parent of a compound that is named as a salt.
Catalogue of cell viability values
Could you give me the number in %? Just the number is fine.

Example entries begin here.
[
  {
    "molecule": "Cn1c(=O)[nH]c2ncn(C)c2c1=O [paraxanthine]",
    "cell viability (%)": 93.5
  },
  {
    "molecule": "CC/C(=C(\\c1ccc(O)cc1)c1ccc(OCCNC)cc1)c1ccccc1 [Endoxifen HCl]",
    "cell viability (%)": 99.9
  }
]

## Input Which cell viability value belongs to CC[C@H](NC(=O)c1c(O)c(-c2ccccc2)nc2ccccc12)c1ccccc1 [talnetant] ?
## Output 102

###

Catalogue of cell viability values
Tested on: HepG2
test details: cell viability relative to DMSO; higher = less toxic
details: 72 h; 1000 nM

## Input Which cell viability value belongs to CCCCCNCC(N)=O [milacemide] ?
## Output 94.6%

## Input Which cell viability value belongs to "COc1ccc(-n2c(C)c([N+](=O)[O-])c3ccc(O)cc32)cc1" ?
## Output 106%

## Input Which cell viability value belongs to COc1ccc(C(CN(C)C)C2(O)CCCCC2)cc1 (stereo unspecified) ?
## Output 93.2%

###

System: HepG2
test details: cell viability relative to DMSO; higher = less toxic
details: 72 h; 100 nM
readout kind: cell viability (%)
Could you give me the number in %? Just the number is fine.

Example entries begin here.
[
  {
    "molecule": "O=C(O)CCC(=O)OC[C@@H](NC(=O)C(Cl)Cl)[C@H](O)c1ccc([N+](=O)[O-])cc1 [chloramphenicol-sodium-succinate]",
    "target entity": "HepG2",
    "result unit": "%",
    "reported": 88.3
  },
  {
    "molecule": "CCc1nc2ccc(Cl)cn2c1C(=O)NCc1ccc(N2CCC(c3ccc(OC(F)(F)F)cc3)CC2)cc1 [Q-203]",
    "target entity": "HepG2",
    "result unit": "%",
    "reported": 92.1
  },
  {
    "molecule": "O=C(O)C1CN(Cc2ccc(-c3nc4cc(Cc5ccccc5F)ccc4s3)c(F)c2)C1 [TC-SP-14]",
    "target entity": "HepG2",
    "result unit": "%",
    "reported": 90.3
  }
]

## Input Which cell viability value belongs to c1cc2c(cc1[C@H]1OC[C@H]3[C@@H]1CO[C@@H]3c1ccc3c(c1)OCO3)OCO2 [sesamin] ?
## Output 102
